# Assay remarks: Pharmacokinetic study of DPTM in rats after i.v., i.m. and p.o. administration (HPLC-MS/MS, non-compartmental)
# Format: in vivo
# Study conditions: Sprague-Dawley, rat, plasma, po, 75 mg/kg, rat serum, p.o., 75 mg/kg; read-out: Cmax
Assay metric: Cmax (ng/mL)
State the answer as a number, implicitly in ng/mL.

Request: State, in one line, measured Cmax of C=CC1(C)CC(OC(=O)CSc2nc(N)cc(N)n2)C2(C)C(C)CCC3(CCC(=O)C32)C(C)C1O (stereo not shown) [DPTM]
Response: 300

---

# Assay remarks: Pharmacokinetic study of DPTM in rats after i.v., i.m. and p.o. administration (HPLC-MS/MS, non-compartmental)
# Type: in vivo
# Study conditions: Sprague-Dawley, plasma, iv; rat, i.v., 10 mg/kg; read-out: MRT0–t
Assay metric: MRT last (h)
State the answer as a number, implicitly in h.

Request: State, in one line, measured MRT last of C=CC1(C)CC(OC(=O)CSc2nc(N)cc(N)n2)C2(C)C(C)CCC3(CCC(=O)C32)C(C)C1O (stereo not shown)
Response: 1

---

# Assay remarks: Pharmacokinetic study of DPTM in rats after i.v., i.m. and p.o. administration (HPLC-MS/MS, non-compartmental)
# Type: in vivo
# Study conditions: Sprague-Dawley, rat, plasma, po, 25 mg/kg, rat serum, p.o., 25 mg/kg; read-out: Cmax
# Protocol: After administration of three i.v., i.m. and p.o. dose (10, 25 and 75 mg/kg) of DPTM to rats, the pharmacokinetic profiles of DPTM were quantified by the validated HPLC-MS/MS methods. […] Pharmacokinetic parameters, including maximum plasma concentration (Cmax), time (Tmax), area under the plasma concentration versus time curve from zero to last sampling time (AUC0−t) and elimination half-life (t1/2) were calculated using WinNonlin software (version 2.1, Pharsight, Mountain View, CA, USA). […]
Assay metric: Cmax (µg/mL)
State the answer as a number, implicitly in µg/mL.

Request: State, in one line, measured Cmax of C=CC1(C)CC(OC(=O)CSc2nc(N)cc(N)n2)C2(C)C(C)CCC3(CCC(=O)C32)C(C)C1O (stereo not shown)
Response: 0.2

---

# Assay remarks: Pharmacokinetic study of DPTM in rats after i.v., i.m. and p.o. administration (HPLC-MS/MS, non-compartmental)
# Format: in vivo
# Study conditions: Sprague-Dawley, rat, plasma, iv, 75 mg/kg, i.v., range over 10, 25 and 75 mg/kg doses, read-out: area under the curve from 0 to 48 h (AUC0→t)
Assay metric: AUC(0-t)

Request: State, in one line, measured AUC(0-t) of C=CC1(C)CC(OC(=O)CSc2nc(N)cc(N)n2)C2(C)C(C)CCC3(CCC(=O)C32)C(C)C1O (stereo not shown)
Response: 2230 to 36000 ng·h/mL

---

# Assay remarks: Pharmacokinetic study of DPTM in rats after i.v., i.m. and p.o. administration (HPLC-MS/MS, non-compartmental)
# Assay type: in vivo
# Study conditions: Sprague-Dawley, plasma, po; rat, 75 mg/kg, median (min–max)
Assay metric: Tmax (h)
State the answer as a number, implicitly in h.

Request: State, in one line, measured Tmax of C=CC1(C)CC(OC(=O)CSc2nc(N)cc(N)n2)C2(C)C(C)CCC3(CCC(=O)C32)C(C)C1O (stereo not shown) [DPTM]
Response: 2

---

# Assay remarks: Pharmacokinetic study of DPTM in rats after i.v., i.m. and p.o. administration (HPLC-MS/MS, non-compartmental)
# Assay type: in vivo
# Study conditions: Sprague-Dawley, plasma, iv; rat, i.v., 25 mg/kg; read-out: MRT0–t
Assay metric: MRT last (h)
State the answer as a number, implicitly in h.

Request: State, in one line, measured MRT last of C=CC1(C)CC(OC(=O)CSc2nc(N)cc(N)n2)C2(C)C(C)CCC3(CCC(=O)C32)C(C)C1O (stereo not shown)
Response: 1.3

---

# Assay remarks: Pharmacokinetic study of DPTM in rats after i.v., i.m. and p.o. administration (HPLC-MS/MS, non-compartmental)
# Type: in vivo
# Study conditions: Sprague-Dawley, plasma, iv; rat, 10 mg/kg
Assay metric: clearance (mL/min/kg)
State the answer as a number, implicitly in mL/min/kg.

Request: State, in one line, measured clearance of C=CC1(C)CC(OC(=O)CSc2nc(N)cc(N)n2)C2(C)C(C)CCC3(CCC(=O)C32)C(C)C1O (stereo not shown)
Response: 5

---

# Assay remarks: Pharmacokinetic study of DPTM in rats after i.v., i.m. and p.o. administration (HPLC-MS/MS, non-compartmental)
# Assay type: in vivo
# Study conditions: Sprague-Dawley, plasma, po; rat, p.o., 25 mg/kg; read-out: F, absolute bioavailability
Assay metric: bioavailability (%)
State the answer as a number, implicitly in %.

Request: State, in one line, measured bioavailability of C=CC1(C)CC(OC(=O)CSc2nc(N)cc(N)n2)C2(C)C(C)CCC3(CCC(=O)C32)C(C)C1O (stereo not shown)
Response: 24.3

---

# Assay remarks: Pharmacokinetic study of DPTM in rats after i.v., i.m. and p.o. administration (HPLC-MS/MS, non-compartmental)
# Type: in vivo
# Study conditions: Sprague-Dawley, rat, plasma, im, 10 mg/kg, rat serum, i.m., 10 mg/kg; read-out: Cmax
Assay metric: Cmax (ng/mL)
State the answer as a number, implicitly in ng/mL.

Request: State, in one line, measured Cmax of C=CC1(C)CC(OC(=O)CSc2nc(N)cc(N)n2)C2(C)C(C)CCC3(CCC(=O)C32)C(C)C1O (stereo not shown) [DPTM]
Response: 500

---

# Assay remarks: Pharmacokinetic study of DPTM in rats after i.v., i.m. and p.o. administration (HPLC-MS/MS, non-compartmental)
# Format: in vivo
# Study conditions: Sprague-Dawley, rat, plasma, im, 75 mg/kg, rat serum, i.m., 75 mg/kg; read-out: AUC0→t
Assay metric: AUC(0-t) (ng·h/mL)
State the answer as a number, implicitly in ng·h/mL.

Request: State, in one line, measured AUC(0-t) of C=CC1(C)CC(OC(=O)CSc2nc(N)cc(N)n2)C2(C)C(C)CCC3(CCC(=O)C32)C(C)C1O (stereo not shown)
Response: 5700

---

# Assay remarks: Pharmacokinetic study of DPTM in rats after i.v., i.m. and p.o. administration (HPLC-MS/MS, non-compartmental)
# Format: in vivo
# Study conditions: Sprague-Dawley, rat, plasma, iv, 25 mg/kg, rat serum, i.v., 25 mg/kg; read-out: Cmax
Assay metric: Cmax
A bare number is not enough; add the unit after it.

Request: State, in one line, measured Cmax of C=CC1(C)CC(OC(=O)CSc2nc(N)cc(N)n2)C2(C)C(C)CCC3(CCC(=O)C32)C(C)C1O (stereo not shown)
Response: 16000 ng/mL

---

# Assay remarks: Pharmacokinetic study of DPTM in rats after i.v., i.m. and p.o. administration (HPLC-MS/MS, non-compartmental)
# Type: in vivo
# Study conditions: Sprague-Dawley, plasma, im; rat, i.m., 75 mg/kg; read-out: MRT0–t
Assay metric: MRT last (h)
State the answer as a number, implicitly in h.

Request: State, in one line, measured MRT last of C=CC1(C)CC(OC(=O)CSc2nc(N)cc(N)n2)C2(C)C(C)CCC3(CCC(=O)C32)C(C)C1O (stereo not shown)
Response: 4.2

---

# Assay remarks: Pharmacokinetic study of DPTM in rats after i.v., i.m. and p.o. administration (HPLC-MS/MS, non-compartmental)
# Format: in vivo
# Study conditions: Sprague-Dawley, plasma, iv; rat, 25 mg/kg, median (min–max)
# Procedure: After administration of three i.v., i.m. and p.o. dose (10, 25 and 75 mg/kg) of DPTM to rats, the pharmacokinetic profiles of DPTM were quantified by the validated HPLC-MS/MS methods. […] Pharmacokinetic parameters, including maximum plasma concentration (Cmax), time (Tmax), area under the plasma concentration versus time curve from zero to last sampling time (AUC0−t) and elimination half-life (t1/2) were calculated using WinNonlin software (version 2.1, Pharsight, Mountain View, CA, USA). […]
Assay metric: Tmax (min)
State the answer as a number, implicitly in min.

Request: State, in one line, measured Tmax of C=CC1(C)CC(OC(=O)CSc2nc(N)cc(N)n2)C2(C)C(C)CCC3(CCC(=O)C32)C(C)C1O (stereo not shown)
Response: 4.8

---

# Assay remarks: Pharmacokinetic study of DPTM in rats after i.v., i.m. and p.o. administration (HPLC-MS/MS, non-compartmental)
# Format: in vivo
# Study conditions: Sprague-Dawley, plasma, im; rat, i.m., 75 mg/kg; read-out: F, absolute bioavailability
Assay metric: bioavailability (%)
State the answer as a number, implicitly in %.

Request: State, in one line, measured bioavailability of C=CC1(C)CC(OC(=O)CSc2nc(N)cc(N)n2)C2(C)C(C)CCC3(CCC(=O)C32)C(C)C1O (stereo not shown) [DPTM]
Response: 15.8
